meta.source: PubChem BioAssay (NCI)

Test: NCI Yeast Anticancer Drug Screen. Data for the rad50 strain (AID 155);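 note: 0% = growth of vehicle-only cultures of the same strain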
Conditions: S. cerevisiae rad50 strain growth inhibition; at 5.0 µM (retest, dose inferred, filed as 0.5); stronger effect = higher value
The panel holds about 79,000 compounds, 15% with a hit somewhere; the sample as a whole holds those more often. Activity calls are given as the source filed them. Cut-off read from the data, not from the text of the source: active = growth inhibition above about 70%; inactive = the rest.

compound | growth inhibition
CCOC(=O)c1cc(C)ccc1-c1ccc(C)cc1C(=O)OCC | 1% (inactive)
O=[N+]([O-])c1cc(CNCCO)c(O)c2ncccc12 | 99% (active)
CC1=NN(c2nc(N)nc(NS(=O)(=O)c3cc(C)c(Cl)cc3S)n2)C(C)(C)C1 | 29% (inactive)
CC1(C)CCC[C@@]2(C)C1CC[C@@]1(CO1)[C@@H]2/C=C\C(C=O)CC=O (stereo partly drawn) | 60% (inactive)
c1ccc(-n2ncc3ccc4cccn4c32)cc1 | -4% (inactive)
O=C(O)c1ccc2cc3ccccc3cc2c1 | -16% (inactive)
N=C(N)c1ccc(OCCCCOc2ccc(N)cc2Cl)cc1 | -36% (inactive)
Cc1ccc(S(=O)(=O)c2cc(O)c(O)c3ccc(Br)cc23)cc1 | 13% (inactive)
CCCCCCCCCCCCCCCCn1cc(C(O)CN(C)C)c2ccccc21 (stereo not drawn) | -4% (inactive)
COC(=O)c1cccc2cccc(C(=O)Nc3ccc(C)cc3C)c12 | 74% (active)
Cc1ccnc(NS(=O)(=O)c2ccc(N=Cc3c4ccccc4nc4cc(Cl)ccc34)cc2)n1 | 58% (inactive)
CCC(Sc1ccccc1[N+](=O)[O-])[N+](=O)[O-] (stereo not drawn) | 1% (inactive)
COC(=O)/C=N/O | -17% (inactive)
Cc1ccc(S(=O)(=O)CC(=O)CC(=O)C(=O)Nc2cc(C)ccc2C)cc1 | -1% (inactive)
Cc1ccccc1N=Nc1ccccc1 | 21% (inactive)
c1ccc(Nc2cccc3ccccc23)cc1 | -4% (inactive)
COc1ccc(C)cc1NC(=O)ON=C1CCCCC1 | 45% (inactive)
CN1CCN(CC(C(=O)O)(c2ccccc2)c2ccccc2)CC1 | -1% (inactive)
